The origin of these recorded values is BindingDB's records for doi:10.1016/j.bmcl.2004.01.021.

// UniProtKB P19438 IC50 records
Output spec: scalar in nM, unitless text.

Example cases with answers are listed next.
| test_smiles | IC50 / nM |
| --- | --- |
| COc1cc(-c2cccs2)ccc1C(=O)/C=C/c1ccc(F)c(F)c1 | 2000 |
| COc1ccc(-c2cc(C)cs2)cc1/C=C/C(=O)c1cc(OC)c(OC)c(OC)c1 | 2000 |
| COc1ccc(-c2cccs2)cc1/C=C/C(=O)c1ccccc1 | 5000 |
| COc1cc(OC)c(-c2cc3ccccc3s2)cc1/C=C/C(=O)c1ccc(OC(C)(C)C(=O)O)cc1 | 6000 |
| COc1cc(/C=C/C(=O)c2cc(OC)c(OCc3ccc4c(c3)OCO4)c(OC)c2)cc(OC)c1OC | 3000 |

Kindly note: UniProtKB P19438, "COc1ccc(-c2cccs2)cc1/C=C/C(=O)c1ccc(OCc2ccc(N)cc2)c(OC)c1" , IC50 value reported: 7000

Kindly note: UniProtKB P19438, "COc1ccc(C(=O)/C=C/c2ccc(OC)cc2OC)cc1" , IC50 value reported: 29000

Kindly note: UniProtKB P19438, "COc1cc(C(=O)C=Cc2cc(OC)c(OC)c(-c3ccc(C(C)=O)s3)c2)cc(OC)c1OC" , IC50 value reported: 3000

Kindly note: UniProtKB P19438, "COc1cc(/C=C/C(=O)c2cc(OC)c(OCc3cc(OC)c(OC)c(OC)c3)c(OC)c2)cc(OC)c1OC" , IC50 value reported: 3000

Kindly note: UniProtKB P19438, "COc1ccc(-c2cccs2)cc1/C=C/C(=O)c1c(OC)cccc1OC" , IC50 value reported: 3000

---

target_or_system: Tumor necrosis factor receptor superfamily member 1A (Homo sapiens)
Sequence (P19438 whole entry): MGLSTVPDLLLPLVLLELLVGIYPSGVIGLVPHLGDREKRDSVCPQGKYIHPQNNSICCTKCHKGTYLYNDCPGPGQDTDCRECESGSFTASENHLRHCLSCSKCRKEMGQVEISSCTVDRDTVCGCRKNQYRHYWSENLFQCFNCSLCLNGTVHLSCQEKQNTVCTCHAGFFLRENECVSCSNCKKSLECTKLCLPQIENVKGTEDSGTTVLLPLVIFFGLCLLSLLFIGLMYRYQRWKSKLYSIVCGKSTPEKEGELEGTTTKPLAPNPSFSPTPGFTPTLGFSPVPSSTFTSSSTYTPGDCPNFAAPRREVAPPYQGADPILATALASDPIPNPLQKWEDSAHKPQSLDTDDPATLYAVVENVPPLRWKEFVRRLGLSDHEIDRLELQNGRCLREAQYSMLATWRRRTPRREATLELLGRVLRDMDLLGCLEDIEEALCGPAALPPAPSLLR
Reported IC50 values are given for each entry in this list.
Output spec: scalar in µM, unitless text.

| test_smiles | measurement_kind | quantitative_result |
| --- | --- | --- |
| COc1ccc(-c2ccc(C)s2)cc1/C=C/C(=O)c1cc(OC)c(OC)c(OC)c1 | IC50 | 2 |

Kindly note: Tumor necrosis factor receptor superfamily member 1A (Homo sapiens), "COc1cc(-c2cccc(C(C)=O)c2)ccc1C(=O)C=Cc1cc(OC)c(OC)c(OC)c1" , IC50 value reported: 4

Kindly note: Tumor necrosis factor receptor superfamily member 1A (Homo sapiens), "CC(C)(C)c1cc(C(=O)/C=C/c2ccccc2)cc(C(C)(C)C)c1O" , IC50 value reported: 47

Kindly note: Tumor necrosis factor receptor superfamily member 1A (Homo sapiens), "COC1=C(c2c(OC)cc(C(=O)/C=C/c3cc(OC)c(OC)c(OC)c3)cc2OC)Oc2ccccc2O1" , IC50 value reported: 2

---

// Tumor necrosis factor receptor superfamily member 1A (Homo sapiens) IC50 records
Output spec: scalar in µM, unitless text.

Example cases with answers are listed next.
| test_smiles | measurement_kind | quantitative_result |
| --- | --- | --- |
| COc1ccc(C(=O)/C=C/c2ccc(OC)c(OC)c2)cc1 | IC50 | 15 |
| COc1cc(OC)c(-c2cc3ccccc3s2)cc1/C=C/C(=O)c1cc(OC)c(O)c(OC)c1 | IC50 | 1 |
| COc1cc(/C=C/C(=O)c2cc(OC)c(OC)c(OC)c2)cc(Br)c1OC | IC50 | 4 |

// IC50 lookup, compound = "COc1ccc(COc2c(OC)cc(C(=O)/C=C/c3cc(OC)c(OC)c(OC)c3)cc2OC)cc1" , result: 1

---

Target chain: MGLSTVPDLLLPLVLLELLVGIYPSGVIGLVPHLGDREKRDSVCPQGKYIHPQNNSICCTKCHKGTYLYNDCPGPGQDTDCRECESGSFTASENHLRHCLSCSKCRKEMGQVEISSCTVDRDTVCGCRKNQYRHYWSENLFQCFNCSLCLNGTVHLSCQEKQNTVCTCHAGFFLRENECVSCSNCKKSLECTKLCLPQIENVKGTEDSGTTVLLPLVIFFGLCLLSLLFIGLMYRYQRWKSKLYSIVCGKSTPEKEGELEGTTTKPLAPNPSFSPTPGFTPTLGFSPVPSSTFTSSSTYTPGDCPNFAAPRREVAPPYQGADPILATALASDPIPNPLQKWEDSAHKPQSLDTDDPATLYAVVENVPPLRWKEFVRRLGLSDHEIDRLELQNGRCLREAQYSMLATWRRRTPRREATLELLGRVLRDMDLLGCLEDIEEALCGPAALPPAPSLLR
Reported pIC50 values are given for each entry in this list.
Please report pIC50 as the negative decimal logarithm of the molar concentration, giving only the number.

Example cases with answers are listed next.
| test_smiles | pIC50 |
| --- | --- |
| COc1cc(OC)c(/C=C/C(=O)c2cc(OC)c(OC)c(OC)c2)cc1Br | 5.70 |
| COc1ccc(-c2cccs2)cc1/C=C/C(=O)c1ccc(OCc2ccc(C(=O)O)cc2)c(OC)c1 | 5.30 |

// pIC50 lookup, compound = "COc1ccc(C(=O)/C=C/c2ccc(-c3cccs3)cc2)cc1OC" , result: 4.92

// pIC50 lookup, compound = "COc1cc(C(=O)/C=C/c2ccccc2)cc(OC)c1OC" , result: 5.22

// pIC50 lookup, compound = "COc1cc(OC)c(-c2cc3ccccc3s2)cc1/C=C/C(=O)c1ccc(OC)c(OC)c1OC" , result: 5.10

// pIC50 lookup, compound = "COc1cc(OC)c(C(=O)/C=C/c2cc(-c3cccs3)ccc2OC)c(OC)c1" , result: 5.52

// pIC50 lookup, compound = "COc1cc(/C=C/C(=O)c2ccc3c(c2)OC(O)(O)O3)cc(-c2cccs2)c1OC" , result: 6.00

// pIC50 lookup, compound = "CCOC(=O)c1ccc(COc2ccc(C(=O)/C=C/c3cc(-c4cccs4)ccc3OC)cc2OC)cc1" , result: 5.40

// pIC50 lookup, compound = "COc1cc(OCC(=O)O)c(/C=C/C(=O)c2ccccc2)cc1-c1cc2ccccc2s1" , result: 6.00

// pIC50 lookup, compound = "COCCOc1c(OC)cc(C(=O)/C=C/c2cc(OC)c(OC)c(OC)c2)cc1OC" , result: 5.30

---

target_or_system: Tumor necrosis factor receptor superfamily member 1A (Homo sapiens, UniProt P19438)
Reported pIC50 values are given for each entry in this list.
Please report pIC50 as the negative decimal logarithm of the molar concentration, giving only the number.

Example cases with answers are listed next.
| test_smiles | target_or_system | pIC50 |
| --- | --- | --- |
| COc1ccc(-c2cccs2)cc1/C=C/C(=O)c1ccc(OCc2ccncc2)c(OC)c1 | Tumor necrosis factor receptor superfamily member 1A (Homo sapiens, UniProt P19438) | 5.40 |
| COc1ccc(/C=C/C(=O)c2ccc(OC)cc2OC)cc1 | Tumor necrosis factor receptor superfamily member 1A (Homo sapiens, UniProt P19438) | 5.15 |
| COc1cc(OC(C)(C)C(=O)O)c(/C=C/C(=O)c2ccc(C(F)(F)F)cc2)cc1-c1cccs1 | Tumor necrosis factor receptor superfamily member 1A (Homo sapiens, UniProt P19438) | 5.40 |

Now let's try a different one.
// pIC50 lookup, molecule = "COc1c(C(C)(C)C)cc(C(=O)/C=C/c2ccccc2)cc1C(C)(C)C" , result: 5.05
